test system: Mus musculus; test: Antidiabetic activity against over-night fasted C57BL/ks db/db mouse assessed as suppression of increased blood glucose concentration at 1 uM/kg, sc pretreated with compound for 4 weeks followed by insulin stimulation and measured for 90 mins by insulin tolerance test; assay type: functional, organism-based; details: time 40410.0 min
Active and inactive are the calls of the source. No cut-off for these calls is given here. Square brackets hold non-standard residues; d marks the D form. Peptide text beside a SMILES is read from it. * marks the point of attachment. ξ: configuration not given here. C22 diacid = O=C(O)CCCCCCCCCCCCCCCCCCCCC(=O)*; C20 diacid = O=C(O)CCCCCCCCCCCCCCCCCCC(=O)*; Myristoyl = CCCCCCCCCCCCCC(=O)*; ξR = N=C(N)NCCCC(N)C(=O)O
readout_kind: Activity

1) CCCCCCCCCCCCCC(=O)N[C@H](C(=O)N[C@@H](C)C(=O)N[C@@H](CCC(N)=O)C(=O)N[C@@H](CCC(=O)O)C(=O)N[C@@H](CC(C)C)C(=O)N[C@@H](CCCNC(=N)N)C(=O)NC(CCCNC(=N)N)C(=O)N[C@H](C(=O)NCC(=O)N[C@@H](CC(=O)O)C(=O)N[C@@H](CCC(=O)O)C(=O)N[C@@H](Cc1ccccc1)C(=O)O)[C@@H](C)CC)[C@@H](C)CC (stereo partly drawn) (Myristoyl-IAQELR[ξR]IGDEF-OH)
Active
2) CC[C@H](C)[C@H](NC(=O)CCCCCCCCCCCCCCCCCCCCC(=O)O)C(=O)N[C@@H](C)C(=O)N[C@@H](CCC(N)=O)C(=O)N[C@@H](CCC(=O)O)C(=O)N[C@@H](CC(C)C)C(=O)N[C@@H](CCCNC(=N)N)C(=O)NC(CCCNC(=N)N)C(=O)N[C@H](C(=O)NCC(=O)N[C@@H](CC(=O)O)C(=O)N[C@@H](CCC(=O)O)C(=O)N[C@@H](Cc1ccccc1)C(=O)O)[C@@H](C)CC (stereo partly drawn) ({C22 diacid}-IAQELR[ξR]IGDEF-OH)
Active
3) CC[C@H](C)[C@H](NC(=O)CCCCCCCCCCCCCCCCCCC(=O)O)C(=O)N[C@@H](C)C(=O)N[C@@H](CCC(N)=O)C(=O)N[C@@H](CCC(=O)O)C(=O)N[C@@H](CC(C)C)C(=O)N[C@@H](CCCNC(=N)N)C(=O)NC(CCCNC(=N)N)C(=O)N[C@H](C(=O)NCC(=O)N[C@@H](CC(=O)O)C(=O)N[C@@H](CCC(=O)O)C(=O)N[C@@H](Cc1ccccc1)C(=O)O)[C@@H](C)CC (stereo partly drawn) ({C20 diacid}-IAQELR[ξR]IGDEF-OH)
Active

Reference for the values: ChEMBL document CHEMBL5316338
